Data origin, for the record: PubChem BioAssay (NCI)

- Tested on: HCT-15 colon
Non-standard residues stand in square brackets, D forms with d. Residues, ends and D or L forms follow the SMILES beside them. ξ: configuration not given here. *: point of attachment. Boc = CC(C)(C)OC(=O)*; ξV = CC(C)C(N)C(=O)O; OBn = c1ccc(CO*)cc1
Pick from active, inactive when you respond.

Examples with answers:
CN[C@]12CC3(C=CC(=O)C=C3)O[C@@]1(Cc1ccc(OC)cc1)N(C)C(=O)N2 : inactive
Cn1cccc1-c1cc(-c2cccs2)[nH]c(=O)c1C#N : inactive
CC(C)C(NC(=O)OC(C)(C)C)C(=O)NCC(=O)OCc1ccccc1 (stereo not drawn) (Boc-[ξV]-Gly-OBn) : inactive

Which result was noted for this compound in the test: O=C(O)c1ccc2c(c1Nc1ccccc1)C(=O)c1ccccc1C2=O inactive

Test call, this compound: CCN(CC)CCOc1ccc(/C(=C(\C)Cc2ccc(OC)cc2)c2ccc(OC(=O)NCc3ccccc3)cc2)cc1 inactive

Record request — test call for CC(=O)O[C@H]1C(=O)O[C@@H]2C[C@H]3C(C)=CC(=O)[C@@H](O)[C@]3(C)[C@H]3[C@@]4(O)OC[C@]32[C@@H]1[C@@H](C)[C@H]4O active

Field: outcome | Entry: COc1cc(/C=C/C(=O)c2ccc(Nc3ncnc4ccccc34)cc2)cc(OC)c1 inactive

Answer briefly: the call reported for NC1=C(Cl)C(=O)c2ccc(S(N)(=O)=O)cc2C1=O in this assay. active

GET /call?item= Clc1cc(Cl)c(Cl)c(-c2nc(-c3cccnc3)cs2)c1 returns the recorded outcome of this test. inactive

What was the test verdict on N.N.N.N.N.N.[I-].[Os] ? inactive

Assay result, entry CCCCCCCC/C=C/CCCCCCCC1=NC(C)(C)CN1C(C)C — outcome? inactive

Recorded call for O=C1C(=O)c2ccccc2-c2ccccc21 ? inactive

Which result was noted for this compound in the test: CC1(C)CC(=O)C2=C(C1)NC(SSC1=C(C#N)C(c3ccc(F)cc3)C3=C(CC(C)(C)CC3=O)N1)=C(C#N)C2c1ccc(F)cc1 (stereo not drawn) inactive
